Would you kindly list melting point for each of these compounds?
Answers are plain numbers, in °C.

Recorded results for 7 compounds are shown here.
compound	melting point (°C)
N#C/N=C(/Nc1cccc(-c2cccc(S(=O)(=O)NC(CC(=O)O)c3ccccc3)c2)c1)NC1CC1 (stereo not shown)	120
Cc1cc(C)c(S(=O)(=O)N[C@@H](Cc2ccc(-c3cccc(NC(=O)Nc4cc(C(C)(C)C)on4)c3)cc2)C(=O)O)c(C)c1	180
Cc1cc(C)c(S(=O)(=O)NC(Cc2cccc(-c3cccc(NC(=O)NCc4ccccn4)c3)c2)C(=O)O)c(C)c1 (stereo not shown)	118
CCCN/C(=N\C#N)Nc1cccc(-c2ccc(C[C@H](NS(=O)(=O)c3c(C)cc(C)cc3C)C(=O)O)cc2)c1	184
Cc1cc(C)c(S(=O)(=O)N[C@@H](Cc2ccc(-c3cccc(NC(=O)Nc4nc5ccc(C)cc5o4)c3)cc2)C(=O)O)c(C)c1	213
CC1(C)[C@H]2CCC1(CS(=O)(=O)N[C@@H](Cc1ccc(-c3cccc(N/C(=N/C#N)NC4CC4)c3)cc1)C(=O)O)C(=O)C2	178
Cc1cc(C)c(S(=O)(=O)N[C@@H](Cc2ccc(-c3cccc(NC(=O)Nc4nccs4)c3)cc2)C(=O)O)c(C)c1	212

# next compound below
Task item: # query: melting point of entry `Cc1cc(C)c(S(=O)(=O)N[C@@H](Cc2ccc(-c3cccc(NC(=O)NCCSC(F)(F)F)c3)cc2)C(=O)O)c(C)c1`
Reply: 138

====

Would you kindly list melting point for each of these molecules?
One number for each entry, in °C.

Recorded results for 3 molecules are shown here.
molecule	measuredParameter	unitOfMeasurement	resultValue
Cc1cc(C)c(S(=O)(=O)N[C@@H](Cc2ccc(-c3cccc(NC(=O)NCc4ccc(C(F)(F)F)cc4)c3)cc2)C(=O)O)c(C)c1	melting point	°C	154
O=C(O)CC(NS(=O)(=O)c1cccc(-c2cccc(NC(=O)NC3CC3)c2)c1)c1cccnc1 (stereo not shown)	melting point	°C	144
Cc1cc(C)c(S(=O)(=O)N[C@@H](Cc2ccc(-c3cccc(N/C(=N/C#N)NCc4ccccc4)c3)cc2)C(=O)O)c(C)c1	melting point	°C	169

# next molecule below
Task item: # query: melting point of entry COc1ccc(-c2ccc(NC(=O)NCC(C)C)cc2)cc1S(=O)(=O)NC(CC(=O)O)c1ccccc1 (stereo not shown)
Reply: 126

====

measuredParameter: melting point (°C)
One number for each entry, in °C.

compound	melting point (°C)
C[C@@H](NS(=O)(=O)c1cccc(-c2cccc(NC(=O)NCC(F)(F)C(F)(F)F)c2)c1)C(=O)O	112
COc1ccc(-c2ccc(NC(=O)NCc3cccnc3)cc2)cc1S(=O)(=O)NC(CC(=O)O)c1ccccc1 (stereo not shown)	161

# next compound below
Task item: # query: melting point of entry `Cc1cc(C)c(S(=O)(=O)N[C@@H](Cc2ccc(-c3cccc(NC(=O)NCC(F)(F)F)c3)cc2)C(=O)O)c(C)c1`
Reply: 124

====

measuredParameter: melting point (°C)
Answers are plain numbers, in °C.

Recorded results for 4 compounds are shown here.
compound	measuredParameter	resultValue
CCNC(=O)Nc1ccc(-c2ccc(OC)c(S(=O)(=O)NC(CC(=O)O)c3ccccc3)c2)cc1 (stereo not shown)	melting point	134
COc1ccc2nc(NC(=O)Nc3cccc(-c4ccc(C[C@H](NS(=O)(=O)c5c(C)cc(C)cc5C)C(=O)O)cc4)c3)sc2c1	melting point	225
Cc1cc(C)c(S(=O)(=O)N[C@@H](Cc2ccc(-c3cccc(NC(=O)NCC(F)(F)C(F)(F)F)c3)cc2)C(=O)O)c(C)c1	melting point	126
CC1(C)[C@H]2CCC1(CS(=O)(=O)N[C@@H](Cc1ccc(-c3cccc(N/C(=C/[N+](=O)[O-])NCc4cccnc4)c3)cc1)C(=O)O)C(=O)C2	melting point	170

Task item: # query: melting point of entry CCCNC(=O)Nc1ccc(-c2ccc(OC)c(S(=O)(=O)NC(CC(=O)O)c3ccccc3)c2)cc1 (stereo not shown)
Reply: 116

All figures here come from patent US7094911B2.
